# Experiment Description: inhibitors of E-selectin induction by TNFa, primary screen, imaging, HUVEC, immunofluorescence, MLSMR starter and 10KST1 sets (AID 487);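 note: signal is fraction of cell area covered by stained E-selectin grains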
# Run Parameters: HUVEC TNFalpha-induced E-selectin immunofluorescence imaging, at 2 µM; hits give high values
Assign class by inhibition: not lower than -70% means Fulfilled; lower than -70% means Not fulfilled.

Would you say `CSc1nc(N)nc(SCC(=O)OC(C)C)c1C#N` shows inhibition at minimum -70%?
Fulfilled

Would you say C=CCOC(=O)C1=C(C)NC(SCC(=O)N(CC)CC)=C(C#N)C1c1ccco1 (stereo not drawn) shows inhibition at minimum -70%?
Not fulfilled

Would you say `COc1cc(OC)cc(C(=O)N2CCC(N3CCN(c4ccccc4)CC3)CC2)c1` shows inhibition at minimum -70%?
Not fulfilled

Would you say Fc1ccc(C2C3=C(Nc4ncnn42)c2ccccc2OC3c2ccncc2)cc1 (stereo not drawn) shows inhibition at minimum -70%?
Not fulfilled

Would you say `CC1(C)Cc2c(c(-c3ccccc3)[nH]c(=O)c2C#N)CS1` shows inhibition at minimum -70%?
Fulfilled

----------
# Tested System: Voltage-gated potassium channel subunit beta-2 (Rattus norvegicus) (UniProt P62483)
# Sequence (P62483 whole entry, looked up): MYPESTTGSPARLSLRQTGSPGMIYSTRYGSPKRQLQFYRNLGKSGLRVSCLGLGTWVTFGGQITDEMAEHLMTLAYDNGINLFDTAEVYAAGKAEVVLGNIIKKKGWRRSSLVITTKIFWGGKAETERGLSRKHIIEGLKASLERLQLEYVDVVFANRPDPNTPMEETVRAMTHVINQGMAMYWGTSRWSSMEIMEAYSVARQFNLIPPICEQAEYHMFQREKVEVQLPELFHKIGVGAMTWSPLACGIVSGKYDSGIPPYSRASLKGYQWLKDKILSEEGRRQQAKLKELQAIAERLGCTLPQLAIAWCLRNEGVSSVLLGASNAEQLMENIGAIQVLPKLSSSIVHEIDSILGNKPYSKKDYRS
# Experiment Description: KvBeta enzyme negative modulators, primary screen, biochemical, NADPH fluorescence (AID 622);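 note: slope of raw intensity against log time taken from 70 to 1610 s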
# Run Parameters: recombinant KvBeta, 4-cyanobenzaldehyde reduction, at 10 µM, hits give high values
Assign class by fluorescence slope: not lower than -0.5 means Yes; lower than -0.5 means No.

Study these solved cases before continuing.
{"Molecule": "N#CC1=C(N)C(C#N)(C#N)[C@H](c2ccncc2)[C@H]2CN(C(=O)OCc3ccccc3)CC=C12", "Tested System": "Voltage-gated potassium channel subunit beta-2 (Rattus norvegicus) (UniProt P62483)", "Class Assignment": "Yes"}
{"Molecule": "CCOC(=O)C1=C(N)c2ccccc2CC1C(C)C (centres undefined)", "Tested System": "Voltage-gated potassium channel subunit beta-2 (Rattus norvegicus) (UniProt P62483)", "Class Assignment": "Yes"}
{"Molecule": "CC(=O)O[C@H]1C(=O)[C@]2(C)[C@H]([C@H](OC(=O)c3ccccc3)[C@]3(O)C[C@H](OC(=O)[C@H](O)[C@@H](NC(=O)c4ccccc4)c4ccccc4)C(C)=C1C3(C)C)[C@]1(OC(C)=O)CO[C@@H]1C[C@@H]2O", "Tested System": "Voltage-gated potassium channel subunit beta-2 (Rattus norvegicus) (UniProt P62483)", "Class Assignment": "Yes"}
{"Molecule": "CC(=O)OCC(=O)[C@@]12OC3(CCCC3)O[C@@H]1C[C@H]1[C@@H]3CCC4=CC(=O)C=C[C@]4(C)[C@@]3(F)[C@@H](O)C[C@@]12C", "Tested System": "Voltage-gated potassium channel subunit beta-2 (Rattus norvegicus) (UniProt P62483)", "Class Assignment": "No"}
{"Molecule": "c1cncc(Oc2cccc(Oc3cccnc3)c2)c1", "Tested System": "Voltage-gated potassium channel subunit beta-2 (Rattus norvegicus) (UniProt P62483)", "Class Assignment": "Yes"}

Would you say COCc1[nH]nc2c1C(c1ccnc3ccccc13)C(C#N)=C(N)O2 (centres undefined) shows fluorescence slope at minimum -0.5?
No

Would you say `CC1(C)CC(=O)c2cc(C(=O)N3CCCC(C)(C)C3)c(=O)n(-c3ccccc3)c2C1` shows fluorescence slope at minimum -0.5?
Yes

----------
# Experiment Description: inhibitors of E-selectin induction by TNFa, primary screen, imaging, HUVEC, immunofluorescence, MLSMR starter and 10KST1 sets (AID 487);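 note: signal is fraction of cell area covered by stained E-selectin grains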
# Run Parameters: HUVEC TNFalpha-induced E-selectin immunofluorescence imaging, at 2 µM; hits give high values
Measured Attribute: inhibition (%)
Answers are plain numbers, in %.

Examples from the recorded data:
{"Compound": "COC(=O)c1ccc(Oc2nc3ccccc3n3c(C)nnc23)cc1", "Measured": -57.8}
{"Compound": "CN(C)c1ccc(O)c2c1CC1CC3[C@@H](N(C)C)C(=O)C(C(N)=O)=C(O)[C@]3(O)C(=O)C1=C2O (stereo not given in full)", "Measured": -55.7}
{"Compound": "CCCCOC(=O)C(C)c1c(C)[nH]c(=S)[nH]c1=O (stereo not given)", "Measured": -142}
{"Compound": "Cc1ccc2[nH]c3c(N4CCN(Cc5ccccc5)CC4)ncnc3c2c1", "Measured": -11.9}
{"Compound": "CO[C@@]1(NC(=O)CSCC#N)C(=O)N2C(C(=O)O)=C(CSc3nnnn3C)CS[C@@H]21", "Measured": -96.3}

I need inhibition for every entry listed below, if you could help.
1. O=C(O)CCSc1ccc2ccccc2n1
2. NC(=O)N1c2ccccc2C=Cc2ccccc21
3. COc1cc(-c2nn3c(-c4cccnc4)nnc3s2)cc(OC)c1OC
4. CCOC(=O)C1=C(CSc2nc(-c3ccncc3)ccc2C#N)OC(N)=C(C#N)C1c1cccnc1 (stereo not given)
5. CC(=O)Nc1ccc(S(=O)(=O)Nc2nc3n(n2)C(c2ccccc2)CC(=O)N3)cc1 (stereo not given)

[-157, -55.6, -152, 45.7, -106]
